Each entry below carries its recorded Growth Rate.
tested on: HEK-293T; test: Incucyte cell viability with HEK293T; type: toxicity, cell-based; settings: human, 24 h, 10 µM, compound concentration 10 uM, replicate number 1, timepoint 24 hours; further: unitless GR value; below 1 slowed growth and below 0 cell loss
Answer using only a numeral; do not append any unit.

COC(c1ccccc1)(c1ccccc1)[C@H](Oc1nc(C)cc(C)n1)C(=O)O :: 0.97
CC(C)Oc1ccc(-c2nc(-c3cccc4c3CC[C@@H]4NCCO)no2)cc1C#N :: -0.25
CN(c1ncccc1CNc1ccnc(-c2cc3cc(Cl)ccc3[nH]2)n1)S(C)(=O)=O :: -0.24
Cc1cc(Cn2cnc3c2C[C@@H](C(=O)O)N(C(=O)C(c2ccccc2)c2ccccc2)C3)ccc1N(C)C :: 0.85

Then this compound:
For the compound shown here, `Cc1cc(CN)cc(C)c1-c1ncn(C)c1-c1ccnc2cc(F)ccc12` , give the reported Growth Rate.
0.87

====

Each entry below carries its recorded Growth Rate.
tested on: HEK-293T; assay: Incucyte cell viability with HEK293T; assay type: toxicity, cell-based; conditions: human, 12 h, 10 µM, compound concentration 10 uM, replicate number 1, timepoint 12 hours; further: unitless GR value; below 1 slowed growth and below 0 cell loss
Answer using only a numeral; do not append any unit.

Brc1c(N=C2NCCN2)ccc2nccnc12.O=C(O)C(O)C(O)C(=O)O :: 0.79
Cc1ccccc1N1CCN(S(=O)(=O)C[C@]23CC[C@H](C[C@@H]2NC(=O)[C@@H](N)CCS(C)(=O)=O)C3(C)C)CC1.Cl :: 0.81
CCCN(CCC)[C@@H]1CCc2ccc3[nH]c(C#N)cc3c2C1.Cl :: 0.81
C[C@@H]1CC(=O)Nc2cccc(-c3ccc4c(c3)c(-c3cnn(C)c3)nn4C)c2N1 :: 0.43
CN1C[C@H](C(=O)N[C@]2(C)O[C@@]3(O)[C@@H]4CCCN4C(=O)[C@H](Cc4ccccc4)N3C2=O)C[C@@H]2c3cccc4[nH]cc(c34)C[C@H]21.CS(=O)(=O)O [DIHYDROERGOTAMINE MESYLATE] :: 0.96
COC(c1ccccc1)(c1ccccc1)[C@H](Oc1nc(C)cc(C)n1)C(=O)O :: 0.96

Then this compound:
For the compound shown here, `O=c1ccn([C@@H]2O[C@H](COP(=O)([O-])OP(=O)([O-])OP(=O)([O-])O)[C@@H](O)[C@H]2O)c(=O)[nH]1.[Na+].[Na+].[Na+]` , give the reported Growth Rate.
0.84

====

test system: HEK-293T; assay: Incucyte cell viability with HEK293T; assay type: toxicity, cell-based; details: human, 6 h, 10 µM, compound concentration 10 uM, replicate number 1, timepoint 6 hours; further: unitless GR value; below 1 slowed growth and below 0 cell loss
The label criterion met is reserved for Growth Rate strictly under 0.4; criterion not met covers values equal to or above it.

Illustrative cases are given below, each with its answer.
O=C(N[C@@H]1CC[C@@H](c2cccc(F)c2F)CN(CC(F)(F)F)C1=O)N1CCC(n2c(=O)[nH]c3ncccc32)CC1 :: criterion met
CC(C)c1noc(N2CCC(COc3ccc(-c4ccc(S(C)(=O)=O)cc4)nc3)CC2)n1 :: criterion met
CC(C)(C)c1ccc(-c2coc3ccc(-c4cn[nH]c4)nc23)cc1 :: criterion met
CC1(C)[C@H]2C[C@H](C/C=C\CCCC(=O)O)[C@@H](NC(=O)c3csc4ccc(O)cc34)[C@@H]1C2 :: criterion not met
COc1ncc2cc(C(=O)Nc3cc(C(=O)NCc4cccc(Cl)c4)ccc3Cl)c(=O)[nH]c2n1 :: criterion not met

Determine whether this compound shows Growth Rate lower than 0.4 (ties excluded): `CCCn1c(=O)c2[nH]c(-c3ccc(OCC(=O)Nc4ccc(C#N)cc4)cc3)nc2n(CCC)c1=O`
criterion met

Determine whether this compound shows Growth Rate lower than 0.4 (ties excluded): `CCc1nn2c(C)cc(C)nc2c1Cc1ccc(-c2nnc(C3CCNCC3)o2)cc1`
criterion not met

Determine whether this compound shows Growth Rate lower than 0.4 (ties excluded): `CN(C)CCCOc1ccc(-c2cc(NCCCn3cccn3)nc(S(C)(=O)=O)n2)cc1`
criterion not met

Determine whether this compound shows Growth Rate lower than 0.4 (ties excluded): Cl.NCCc1ccc(O)c(O)c1 [DOPAMINE HYDROCHLORIDE]
criterion not met

Determine whether this compound shows Growth Rate lower than 0.4 (ties excluded): `C[C@@H](c1ccc(F)cc1)n1nnc2cnc3ccc(-c4ccc5ocnc5c4)cc3c21`
criterion met

Determine whether this compound shows Growth Rate lower than 0.4 (ties excluded): `NC(N)=Nc1nc(CSCCC(N)=NS(N)(=O)=O)cs1`
criterion not met

Determine whether this compound shows Growth Rate lower than 0.4 (ties excluded): `Cc1cc(Cn2cnc3c2C[C@@H](C(=O)O)N(C(=O)C(c2ccccc2)c2ccccc2)C3)ccc1N(C)C`
criterion not met

Determine whether this compound shows Growth Rate lower than 0.4 (ties excluded): `CCCCCCCCCCCCC/C=C/[C@@H](O)[C@@H](N)COP(=O)(O)O`
criterion met
